Hey, just so you know, these numbers are from PubChem BioAssay (NCI).

- Test system: HCT-15 colon
- protocol-description: NCI tumour cell line growth inhibition, 48 h
For each record, write down the corresponding GI50.

Reference set (8 entries):
compound	value-kind	result
O=C(NCc1ccco1)c1ccc(NC2=C(Cl)C(=O)N(Cc3ccccc3)C2=O)cc1	GI50	17.7 µM
COc1cc(OC)c(NC(=O)c2cc3ccccc3cc2O)cc1Cl	GI50	3.38 µM
C/C(=C\COc1c2c(cc3c1CCO3)OC1(C=C2)OC(CC/C(C)=C/COc2c3ccoc3cc3oc(=O)ccc23)C(C)(C)O1)CCC(O)C(C)(C)O (stereo not given)	GI50	85 µM
O=c1c2c3c(sc2nc(N/N=C/c2ccc(Br)cc2)n1Cc1ccccc1)CCCC3	GI50	8.98 µM
O=C(NN=C1CCCCC1)c1[nH]c2ccc(F)cc2c1-c1ccccc1	GI50	15.6 µM
O=S(=O)(Nc1cc(Cl)ccc1Cl)c1ccc(-c2cnc(C3CC3)o2)cc1	GI50	0.608 µM
CCCCCCc1nc2nc(Cl)c(Cl)nc2[nH]1	GI50	5.06 µM
C[C@H]1[C@H]2[C@H]3CC[C@@H]4[C@@]5(C)C/C(=C/c6cccnc6)C(=O)C(C)(C)[C@@H]5CC[C@@]4(C)[C@]3(C)CC[C@]23CO[C@]1(C)[C@@H](C(=O)/C=C\c1cccnc1)C3	GI50	0.982 µM

Quick one: give me GI50 for each item below, same order please.
1. Nc1c(C(=O)c2ccc(CCCN3CCOCC3)cc2)cnn1-c1ccc(F)cc1
2. Cc1cc(O)cc(C)c1/C=C/c1cncc(-c2nn[nH]n2)c1

result:
1: > 25 µM; 2: > 25 µM

###

- System: SK-MEL-5 melanoma
- protocol-description: NCI tumour cell line growth inhibition, 48 h
value-kind: GI50

Reference set (3 entries):
molecule	GI50
CCCCN(CCCC)CCCn1c(=O)c2c3ccccc3n(C)c2n2nnc(-c3ccccc3)c12	31900 nM
C=C1C(=O)O[C@@H]2C1C[C@@H](O)C(=C)CC/C=C(\C)CCC[C@H](C)[C@H]2OC(C)=O (stereo partly drawn)	2760 nM
N#CS.N=C=S.N=C=S.[Cu+2].[NH2-].[NH2-].[NH2-].[NH2-].c1ccc2ncccc2c1	17800 nM

Quick one: give me GI50 for each item below, same order please.
1. Cc1ccc(-c2nc(N3CCCNCC3)c3oc(-c4ccccc4)nc3n2)cc1
2. COc1ccc(-c2cc(-c3ccc(O)cc3)nc3n[nH]c(N)c23)cc1
3. CC1=C([Te]c2ccc(O)cc2)C(=O)c2ccccc2C1=O
4. O=C(NO)c1ccc(Cn2c(=O)n(-c3ccccc3F)c(=O)c3ccccc32)cc1

result:
1. 1600 nM
2. 15100 nM
3. 1530 nM
4. 1510 nM

query: Consider the molecule `CN(C)CCCNC(=O)c1cncnc1Nc1ccc(OCc2cccc(F)c2)c(Cl)c1` and give its measured GI50.
result: 1710 nM

###

- Test system: HOP-62 NSCLC
- protocol-description: NCI tumour cell line growth inhibition, 48 h
For each record, write down the corresponding log10 of TGI.
Each number you see is log10 of TGI, and the unit inside the log is µM.

Reference set (3 entries):
compound	value-kind	recorded-number
O=C(c1cc2c(c3ccccc13)NCCN=C2C(F)(F)F)C(F)(F)F	log10 of TGI	1.72
Cn1/c(=N\N=C(\CNCCO)[C@@H](O)[C@@H]2OC(c3ccccc3)OC[C@H]2O)sc2ccccc21 (stereo not given in full)	log10 of TGI	1.54
CCC[CH2][Sn]1([CH2]CCC)[O]C(=O)c2ccc(C)cc2[O]1	log10 of TGI	0.59

Quick one: give me log10 of TGI for each item below, same order please.
1. COC(=O)CSC(=S)Nc1nnc(NC(=S)SCOC(C)=O)n1C(=S)SCC(=O)OC
2. CSc1ncnc2c1ncn2C1OC(CO)C(O)OC1O (stereo not given)
3. CC1(C)CCC(C)(C)c2c1ccc(O)c2Cc1c(O)ccc2c1C(C)(C)CCC2(C)C
4. CCOC(=O)/C(=C(/C)NCC(C)C)c1cc(O)c(O)c2c(C)cc(=O)[nH]c12
5. COc1ccc(-c2c(-c3cc(OC)c(OC)c(OC)c3)noc2N)cc1
6. COc1cc(Nc2nc3ccc(C(F)(F)F)cc3nc2C(=O)O)cc(OC)c1OC

result:
1: 1.57; 2: 1.55; 3: 0.61; 4: 1.57; 5: 1.59; 6: 1.68

Quick one: give me log10 of TGI for each item below, same order please.
1. Cl/C(=C\C=Nc1ccc(I)cc1)c1ccc2ccccc2c1
2. O=C(/C(=C/c1ccc([N+](=O)[O-])cc1)SCc1ccc(F)cc1)c1ccc(Cl)cc1

result:
[1.61, 1.67]
